Test system: SK-MEL-28 melanoma
Assay: NCI-60 one-dose screen, 48 h
Conditions: 10 µM
Compounds without any hit were thinned out: in the full panel of roughly 83,000, 20% have a hit. Activity calls are given as the source filed them. How the source made its calls: active means growth percent below 10; inactive means the rest.
Outcome codes: Yes for active, No for inactive

>  <Compound>
Fc1ccc(/C=C/c2nc3ccccc3n3c(-c4ccc(Cl)cc4)nnc23)cc1

>  <Assay system>
SK-MEL-28 melanoma

>  <Qualitative label>
No

$$$$
>  <Compound>
O=C(Nc1ccc(Oc2ncnc3scc(Nc4n[nH]c(=S)s4)c23)cc1)C1(C(=O)Nc2cccc(C(F)(F)F)c2)CC1

>  <Assay system>
SK-MEL-28 melanoma

>  <Qualitative label>
No

$$$$
>  <Compound>
C#C[C@]1(O)CC[C@H]2[C@@H]3CC=C4c5sc(Nc6ccc(N(C)C)cc6)nc5CC[C@]4(C)[C@H]3CC[C@@]21C

>  <Assay system>
SK-MEL-28 melanoma

>  <Qualitative label>
Yes

$$$$
>  <Compound>
Fc1ccc(-c2csc(Nc3cccc(Nc4nc(-c5ccc(F)cc5)cs4)c3)n2)cc1

>  <Assay system>
SK-MEL-28 melanoma

>  <Qualitative label>
No

$$$$
>  <Compound>
COc1cc(Nc2nc(O)c(/C=C3\C=Nc4ccccc43)s2)cc(OC)c1OC

>  <Assay system>
SK-MEL-28 melanoma

>  <Qualitative label>
Yes

$$$$
>  <Compound>
O=C(Nc1ccc(OCc2ccc(Cl)cc2)cc1)Nc1ccc(Cl)c(C(F)(F)F)c1

>  <Assay system>
SK-MEL-28 melanoma

>  <Qualitative label>
No

$$$$
>  <Compound>
O=C1NC2C=CC=CC2/C1=C1/SC(=S)N(C2CC(=O)N(c3ccc(Br)cc3)C2=O)C1=O (stereo not drawn)

>  <Assay system>
SK-MEL-28 melanoma

>  <Qualitative label>
No

$$$$
>  <Compound>
O=C(CSc1nc2ccccc2c(=O)n1-c1ccc(Cl)cc1)Nc1ccc(-c2nc3ccccc3[nH]2)cc1

>  <Assay system>
SK-MEL-28 melanoma

>  <Qualitative label>
Yes

$$$$
>  <Compound>
C#C[C@]1(O)CC[C@H]2[C@@H]3CC=C4c5sc(Nc6cc(C)cc(C)n6)nc5CC[C@]4(C)[C@H]3CC[C@@]21C

>  <Assay system>
SK-MEL-28 melanoma

>  <Qualitative label>
Yes

$$$$
>  <Compound>
O=C(CC(=O)Nc1ccc(Oc2ncnc3scc(Nc4n[nH]c(=S)s4)c23)cc1)Nc1ccc(Cl)cc1

>  <Assay system>
SK-MEL-28 melanoma

>  <Qualitative label>
No

$$$$
>  <Compound>
O=C(Nc1ccc(OCC(=O)c2ccc(Cl)cc2)cc1)Nc1ccc(Cl)c(C(F)(F)F)c1

>  <Assay system>
SK-MEL-28 melanoma

>  <Qualitative label>
No

$$$$
>  <Compound>
O=C(c1ccc(Cl)cc1)C(c1c[nH]c2ccccc12)c1c[nH]c2ccccc12

>  <Assay system>
SK-MEL-28 melanoma

>  <Qualitative label>
Yes

$$$$
>  <Compound>
O=C(CN1CCN(c2ncnc3c2cnn3-c2ccccc2)CC1)Nc1ccc(Cl)cc1

>  <Assay system>
SK-MEL-28 melanoma

>  <Qualitative label>
No

$$$$
>  <Compound>
Cn1cc(-c2nnc(N)nc2-c2c[nH]c3ccc(F)cc23)c2cc(Br)cnc21

>  <Assay system>
SK-MEL-28 melanoma

>  <Qualitative label>
No

$$$$
>  <Compound>
O=C(CSc1nc2ccccc2c(=O)n1-c1ccc(Cl)cc1)Nc1ccc(-c2nc3ccc([N+](=O)[O-])cc3[nH]2)cc1

>  <Assay system>
SK-MEL-28 melanoma

>  <Qualitative label>
No

$$$$
>  <Compound>
COc1ccc(NCc2cn(-c3ccc(C(=O)O)cc3)nc2-c2ccc(F)cc2)cc1C(F)(F)F

>  <Assay system>
SK-MEL-28 melanoma

>  <Qualitative label>
No

$$$$
>  <Compound>
COc1ccc(OC)c(-n2cc(C#N)c(N)c2C(=O)c2ccc(Cl)cc2Cl)c1

>  <Assay system>
SK-MEL-28 melanoma

>  <Qualitative label>
No

$$$$
>  <Compound>
COc1ccc(C(=O)COc2ccc(NC(=O)Nc3ccc(Cl)c(C(F)(F)F)c3)cc2)cc1

>  <Assay system>
SK-MEL-28 melanoma

>  <Qualitative label>
No

$$$$

src = PubChem BioAssay (NCI)
